test system: RXF 393 renal; experiment: NCI tumour cell line growth inhibition, 48 h
I would appreciate it if you labelled entries T when TGI is 20 µM or higher, otherwise F.

Q: Quick check, TGI >= 20 µM? `C=C1c2nc3ccccc3n2C=C(c2ccc(C)cc2)N1c1ccc(C)cc1`
A: T

Q: Quick check, TGI >= 20 µM? `CCN(Cc1ccc(F)cc1)c1ccc(CO)c(C)c1`
A: T

Q: Quick check, TGI >= 20 µM? CC(=O)NC1C(OCc2ccccc2)OC(CO)C(O)C1OC(C)C(=O)N[C@@H](C)C(=O)N[C@H](CCC(=O)OCCNc1c2ccccc2nc2cccc([N+](=O)[O-])c12)C(N)=O (stereo partly drawn)
A: F

Q: Quick check, TGI >= 20 µM? `C=C1C(=O)O[C@H]2[C@H]3O[C@@H](C[C@@H]12)[C@@]1(C)CC[C@H](O1)[C@H](C)CCC[C@H]3C`
A: F

Q: Quick check, TGI >= 20 µM? COC(=O)C1OC2(CCCC3CC32)O[C@H]1C(=O)OC (stereo partly drawn)
A: T

Q: Quick check, TGI >= 20 µM? `O=[N+]([O-])c1ccc(Oc2nc(Nc3ccc(O[C@H]4CO[C@H]5[C@@H]4OC[C@@H]5O)c(Cl)c3)ncc2F)c(Cl)c1`
A: F

Q: Quick check, TGI >= 20 µM? `C(=N\Nc1ccc(-c2nc3ccccc3[nH]2)cc1)/c1c(-c2ccc(Cc3ccccc3)cc2)[nH]c2ccccc12`
A: F

Q: Quick check, TGI >= 20 µM? O=C1C2=C(c3ccccc31)C(c1ccccc1)N1C(=O)CSC1=N2 (stereo not drawn)
A: T

----------
test system: LOX IMVI melanoma; assay: NCI tumour cell line growth inhibition, 48 h
Hi there, I'd appreciate the recorded GI50 for every entry that follows.

// GI50 value for `CCCCCCNC(=O)Oc1ccc(/C(=C(/C)Cc2ccc(OC)cc2)c2ccc(OCCCN(C)C)cc2)cc1` : 2610 nM

// GI50 value for CCOc1cc(Br)c(C(C)NC(=O)c2cccc(OC)c2)cc1OCC (configuration not stated) : 22800 nM

// GI50 value for `Cc1ccc(/C=C2\CN(C(=O)C(Cl)Cl)C/C(=C\c3ccc(C)cc3)C2=O)cc1` : 62.1 nM

// GI50 value for `Clc1ccc(-c2csc(Nc3cccc(-c4csc(-c5ccccc5)n4)c3)n2)cc1` : 3530 nM

// GI50 value for `Cc1cc2cc3ccc(N(C)C)cc3nc2cc1N` : 325 nM

// GI50 value for `Brc1ccc2[nH]cc(-c3nc(-c4c[nH]c5ncccc45)cs3)c2c1` : 2460 nM

// GI50 value for `Cc1cc(Nc2nc(-c3cccnc3)nc3ccccc23)n[nH]1` : 712 nM

----------
Hi there, I'd appreciate the recorded TGI for every entry that follows.
system: MDA-MB-231 breast; experiment: NCI tumour cell line growth inhibition, 48 h

Item `O=C(CN1CCN(c2cc3c(cc2F)c(=O)c(C(=O)O)cn3C2CC2)CC1)Nc1nc(-c2ccc(Cl)cc2)cs1` was tested on MDA-MB-231 breast; the reported TGI is 61 µM

Item CC1=NN(C(=O)CC(=O)Nc2ccccc2Cl)C(=O)C1N=Nc1ccc(S(=O)(=O)c2ccc(N=NC3C(=O)N(C(=O)CC(=O)Nc4ccccc4Cl)N=C3C)cc2)cc1 (configuration not stated) was tested on MDA-MB-231 breast; the reported TGI is > 100 µM

Item O=c1[nH]c(=O)n(C2CC(O)C(CO)O2)cc1NN=NCCCc1ccccc1 (configuration not stated) was tested on MDA-MB-231 breast; the reported TGI is > 100 µM

Item `S=c1[nH]nc(Cc2ccccc2)c(=S)[nH]1` was tested on MDA-MB-231 breast; the reported TGI is > 100 µM

Item NC1=NC(c2ccc(Cl)cc2)N(c2ccc(S(N)(=O)=O)cc2)C(N)=N1 (configuration not stated) was tested on MDA-MB-231 breast; the reported TGI is > 100 µM

Item COC(OC)C1OCC(n2cc(F)c(=O)[nH]c2=O)C1O (configuration not stated) was tested on MDA-MB-231 breast; the reported TGI is > 100 µM

Item `COc1ccccc1C1=C(Nc2ccccc2)C(=O)NC1=O` was tested on MDA-MB-231 breast; the reported TGI is > 25 µM

Item `O=c1sc2c(s1)-c1sc(=O)sc1SS2` was tested on MDA-MB-231 breast; the reported TGI is > 100 µM

Item `FC(F)(F)c1ccc(-c2cnc(-n3cc(COCCN4CCCCC4)nn3)nc2NC2CCCCCC2)cc1` was tested on MDA-MB-231 breast; the reported TGI is 6.86 µM

Item O=C(O)C1CCCCC1c1c2ccc(=O)c(O)c-2oc2c(O)c(O)ccc12 (configuration not stated) was tested on MDA-MB-231 breast; the reported TGI is 38.1 µM

Item `C=C1c2nc3ccccc3n2C=C(c2ccc(C)cc2)N1c1ccc(C)cc1` was tested on MDA-MB-231 breast; the reported TGI is > 100 µM

Item `C=CCc1cc(-c2cc(CC=C)c(O)c(CN(CC)CC)c2)cc(CN(CC)CC)c1O` was tested on MDA-MB-231 breast; the reported TGI is > 87.7 µM

Item O=C(O)C1CC2(C1)CC(C(=O)O)C2 (configuration not stated) was tested on MDA-MB-231 breast; the reported TGI is > 100 µM

Item `CC(=O)OCc1cncn1S(=O)(=O)c1ccc(C)cc1` was tested on MDA-MB-231 breast; the reported TGI is > 100 µM

Item CCC(c1ccc(OC)cc1)C(CC)c1ccc(O)c(CN2CCN(C)CC2)c1 (configuration not stated) was tested on MDA-MB-231 breast; the reported TGI is 15.1 µM

Item `COc1ccc(/C=C2\CCS(=O)(=O)c3ccccc3C2=O)cc1OC` was tested on MDA-MB-231 breast; the reported TGI is > 100 µM

Item N#Cc1c(Br)n(C2OC(CO)C(O)C2O)c2ncnc(N)c12 (configuration not stated) was tested on MDA-MB-231 breast; the reported TGI is > 79.9 µM
